Value source: patent US5446023A

Assay: In vivo toxicity in mice, rapid intraperitoneal injection
Conditions: mouse, in vivo, ip
measure-name: MTD at 730 h (mg/kg)
Provide the reading as a plain figure in mg/kg.

Q: For the compound shown here, C=CCCCCCCCCC(CCCCCCCCCCCC)NC(=O)CNC(=O)[C@H](O)[C@@H](O)[C@H](O[C@@H]1O[C@H](CO)[C@H](O)[C@H](O)[C@H]1O)[C@H](O)CO (stereo partly shown) [Product 6a] , give the reported MTD at 730 h.
Result: 500

---

Test: In vivo toxicity in mice, rapid intraperitoneal injection
Settings: mouse, in vivo, ip; intraperitoneal, 25 mL/kg dispersion in physiological water, mice; read-out: tolerated dose
measure-name: MTD at 730 h (mg/kg)
Provide the reading as a plain figure in mg/kg.

C=CCCCCCCCCC(CCC(F)(F)C(F)(F)C(F)(F)C(F)(F)C(F)(F)C(F)(F)F)NC(=O)CNC(=O)[C@H](O)[C@@H](O)[C@H](O[C@@H]1O[C@H](CO)[C@H](O)[C@H](O)[C@H]1O)[C@H](O)CO (some centres unmarked) [Product 6c] | 500

// next entry
Q: For the molecule shown here, C=CCCCCCCCCC(CCC(F)(F)C(F)(F)C(F)(F)C(F)(F)C(F)(F)C(F)(F)C(F)(F)C(F)(F)F)NC(=O)CNC(=O)[C@H](O)[C@@H](O)[C@H](O[C@@H]1O[C@H](CO)[C@H](O)[C@H](O)[C@H]1O)[C@H](O)CO (some centres unmarked) [Product 6b] , give the reported MTD at 730 h.
Result: 500
